- assay target: Human immunodeficiency virus type 1 protease (Human immunodeficiency virus 1, UniProt Q72874)
- assay details: Inhibitory concentration against Protease
pIC50: −log10 of the molar value.
# key: entry, value: pIC50

Consider the reported pIC50 for these molecules:
molecule | value observed
COc1cc(CC2C(=O)OC(CCc3ccccc3)(C(=O)NCC(C)(C)C)C2=O)cc(OC)c1OC (stereo not given) | < 3.00
COc1cc(CC2C(=O)OC(C)(C(=O)NC(C)(C)C)C2=O)cc(OC)c1OC (stereo not given) | < 3.00
C[C@@H](c1ccccc1)C1C(=O)O[C@](CCc2ccccc2)(C(=O)NCc2ccc(C(C)(C)C)cc2)C1=O (stereo not given in full) | 4.08

Exercise: Which pIC50 reading was recorded for the molecule CNC1C(=O)OC(CCc2ccccc2)(C(=O)NCC2CCCO2)C1=O (stereo not given) ?
Solution: < 3.00

Exercise: Which pIC50 reading was recorded for the molecule COc1cc(CC2C(=O)OC(C)(C(=O)NC3CC3)C2=O)cc(OC)c1OC (stereo not given) ?
Solution: < 3.00
